Read-out: Transforming growth factor beta 1 (TGFb1), TGFB1 (gene 7040)
Test name: BSK_KF3CT_TGFb1: BioMAP Diversity Plus: KF3CT Assay for Transforming growth factor beta 1 (TGFb1) Biomarker Activity (AID 2283072)
Conditions: primary human keratinocytes with fibroblasts; actives raise or lower the signal
The source made the active and inactive calls. How the source made its calls: active means hit-call score of the fitted dose curve at least 0.9, where 1 is the maximum; inactive means score below 0.9.
Assay metric: AC50

Sample answers from the record:
N#Cc1c(-c2ccc(Cl)cc2)[nH]c(C(F)(F)F)c1Br
0.186 µM (active)
O=C(O)C1C(C(=O)O)C2(Cl)C(Cl)=C(Cl)C1(Cl)C2(Cl)Cl (centres undefined)
inactive
N#Cc1cc([N+](=O)[O-])ccc1N
inactive
O=c1ssc(Cl)c1Cl
20 µM (active)
O=P(Oc1ccccc1)(Oc1ccccc1)Oc1ccccc1
inactive

If you can, please state the reported AC50 value of "Cc1cccc(N)c1" .
inactive

Now give it for "CC(C)(C)c1ccccc1OP(=O)(Oc1ccccc1)Oc1ccccc1" too.
inactive

Now give it for "c1ccc(OP(Oc2ccccc2)Oc2ccccc2)cc1" too.
inactive

Now give it for CC(Cl)CN(C)C (centres undefined) too.
inactive

Now give it for "CC(Cl)(Cl)C(=O)O" too.
inactive

Now give it for "CCCN(CCC)c1c([N+](=O)[O-])cc(C(C)C)cc1[N+](=O)[O-]" too.
inactive

Now give it for OCC1CO1 (centres undefined) too.
inactive

Now give it for "CCOP(=S)(OCC)SCS(=O)(=O)CC" too.
inactive

Now give it for "CC(C)(C)c1ccc(O)cc1" too.
inactive

Now give it for "CCNc1nc(Cl)nc(NC(C)(C)C)n1" too.
inactive

Now give it for "COP(N)(=S)OC" too.
inactive

Now give it for "c1cc2c3c(cccc3c1)CC2" too.
inactive

----------
Read-out: CD40, CD40 (gene 958)
Test name: BSK_SAg_CD40: BioMAP Diversity Plus: SAg Assay for CD40 Biomarker Activity (AID 2283088)
Conditions: primary human HUVEC with PBMC; actives raise or lower the signal
Active and inactive are the calls of the source. Rule for the calls: active = hit-call score of the fitted dose curve at least 0.9, where 1 is the maximum; inactive = score below 0.9.
Outcome (select one): active, inactive

Outcome logged for "O=c1ssc(Cl)c1Cl" in this assay:
active

Now give it for CCC1(c2ccccc2)C(=O)N=C(O)NC1=O (centres undefined) too.
inactive

Now give it for O=C(O)C1C(C(=O)O)C2(Cl)C(Cl)=C(Cl)C1(Cl)C2(Cl)Cl (centres undefined) too.
inactive

Now give it for ClC1=C(Cl)C2(Cl)C3C(Cl)C(Cl)CC3C1(Cl)C2(Cl)Cl (centres undefined) too.
active

Now give it for "COP(=O)(O)OC" too.
inactive

Now give it for "COCCOCCO" too.
inactive

Now give it for CCCCC(CC)COP(=O)(Oc1ccccc1)Oc1ccccc1 (centres undefined) too.
active

Now give it for "c1nc[nH]n1" too.
inactive

Now give it for "O=[N+]([O-])c1ccc(Cl)c(Cl)c1" too.
inactive

Now give it for "CCCCc1ccccc1" too.
inactive

Now give it for "CCOS(=O)(=O)OCC" too.
inactive

Now give it for "N#Cc1cc([N+](=O)[O-])ccc1N" too.
inactive

Now give it for "CCOP(=S)(OCC)SCn1nnc2ccccc2c1=O" too.
inactive

Now give it for O=C(O)C(F)(OC(F)(F)C(F)(F)C(F)(F)F)C(F)(F)F (centres undefined) too.
inactive

Provenance of the data: PubChem BioAssay (EPA / NIEHS)
